This collection of values is drawn from ChEMBL document CHEMBL1961873.

Hi there, I'd appreciate the recorded inhibition for every entry that follows.
# assayed system: Cyclin-dependent kinase 1 (Homo sapiens) (UniProt P06493);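 also: mean percent inhibition of the CDK1/cyclin B complex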
# Sequence (P06493 whole entry, looked up): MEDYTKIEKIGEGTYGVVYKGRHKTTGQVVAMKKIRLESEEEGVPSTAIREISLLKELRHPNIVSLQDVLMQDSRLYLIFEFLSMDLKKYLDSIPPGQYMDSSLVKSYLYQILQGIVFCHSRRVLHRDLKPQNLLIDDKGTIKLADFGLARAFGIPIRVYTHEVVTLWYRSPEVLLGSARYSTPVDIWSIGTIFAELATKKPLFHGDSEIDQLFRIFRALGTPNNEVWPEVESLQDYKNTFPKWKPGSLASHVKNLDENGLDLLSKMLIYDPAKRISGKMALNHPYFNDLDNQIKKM
# assay context: at 1 µM

Find the measured inhibition of `CN(C)c1ccc2c(c1)/C(=C/Nc1ccc(S(N)(=O)=O)cc1)C(=O)N2` and report it.
33.9%

Give a short answer stating reported inhibition for `COc1cc(Nc2ncc3c(C)nc(-c4cccc(C(F)(F)F)c4)n3n2)cc(OC)c1OC` .
6.83%

Output inhibition of `O=C(Nc1n[nH]c2cc(-c3cc(F)ccc3F)ccc12)C1CC1`
7.47%

// Input: `COc1ccc(-c2ccc3c(NC(=O)C4CC4)n[nH]c3n2)cc1` . Output its inhibition only.
4.03%

Assign inhibition to the following record: `C[C@@H](Oc1cc(-n2cnc3ccc(OC4CCN(C)CC4)cc32)sc1C(N)=O)c1ccccc1Cl`
-2.15%
